assay.info: Fluorescence maximum of the dye
Assay type: physicochemical
condition: solvent PBS pH 7.4
Marks after values point to notes of the source that are not given here.
Reported λfl values follow for various molecules
measurement.type: λfl

{"molecule": "CC1(C)C=C(CS(=O)(=O)O)c2cc3c(cc2N1CCCC(=O)O)[Si](C)(C)c1cc2c(cc1=C3NCC(S(=O)(=O)O)S(=O)(=O)O)C(CS(=O)(=O)O)=CC(C)(C)[N+]=2CCS(=O)(=O)O [Compound 93]", "measurement.type": "λfl", "observed": "695^b nm"}
{"molecule": "CN(CCCC(=O)NCCCCCC(=O)O)C(=O)c1ccccc1-c1c2cc(S(=O)(=O)O)/c(=N/Cc3ccc(S(=O)(=O)O)cc3S(=O)(=O)O)cc-2oc2cc(NCc3ccc(S(=O)(=O)O)cc3S(=O)(=O)O)c(S(=O)(=O)O)cc12 [Compound 12]", "measurement.type": "λfl", "observed": "555^b nm"}

* * *

Reported λfl values follow for various compounds
assay.info: Fluorescence maximum of the dye
Format: physicochemical
condition: solvent PBS pH 7.4
Marks after values point to notes of the source that are not given here.

{"compound": "CCN1c2cc3c(cc2C(CS(=O)(=O)O)=CC1(C)C)C(c1ccccc1C(=O)N(C)CCCC(=O)O)=c1cc2c(cc1C3(C)C)=[N+](Cc1ccc(S(=O)(=O)O)cc1S(=O)(=O)O)C(C)(C)C=C2CS(=O)(=O)O", "λfl": "706^b nm"}
{"compound": "O=C(O)c1ccccc1-c1c2cc/c(=N/CS(=O)(=O)O)c(S(=O)(=O)O)c-2oc2c(S(=O)(=O)O)c(NCS(=O)(=O)O)ccc12", "λfl": "554^b nm"}
{"compound": "Cc1cc(=O)n(CC(=O)O)c2cc(NCc3ccc(S(=O)(=O)O)cc3S(=O)(=O)O)ccc12", "λfl": "413^b nm"}
{"compound": "CCN1c2cc3c(cc2C(CS(=O)(=O)O)=CC1(C)C)C(c1n(C)cc[n+]1CCCCS(=O)(=O)O)=c1cc2c(cc1C3(C)C)=[N+](Cc1ccc(S(=O)(=O)O)cc1S(=O)(=O)O)CCC2", "λfl": "749^b nm"}
{"compound": "CCN(Cc1ccccc1S(=O)(=O)O)c1ccc2c(-c3ccccc3C(=O)O)c3cc/c(=[N+](\\CC)Cc4ccccc4S(=O)(=O)O)cc-3oc2c1", "λfl": "584^b nm"}
{"compound": "CN(CCCC(=O)O)C(=O)c1ccccc1C1=c2cc3c(cc2[Si](C)(C)c2cc4c(cc21)C(CS(=O)(=O)O)=CC(C)(C)N4Cc1ccc(S(=O)(=O)O)cc1S(=O)(=O)O)=[N+](Cc1ccc(S(=O)(=O)O)cc1S(=O)(=O)O)C(C)(C)C=C3CS(=O)(=O)O", "λfl": "752^b nm"}
{"compound": "CN(Cc1ccc(S(=O)(=O)O)cc1S(=O)(=O)O)c1ccc2c(c1)[Si](C)(C)C1=C/C(=[N+](/C)Cc3ccc(S(=O)(=O)O)cc3S(=O)(=O)O)C=CC1=C2C#N", "λfl": "763^b nm"}
{"compound": "CC1(C)c2cc3c(cc2N=c2cc4c(cc21)=[N+](CCCC(=O)O)C(C)(C)C=C4CS(=O)(=O)O)C(CS(=O)(=O)O)=CC(C)(C)N3Cc1ccc(S(=O)(=O)O)cc1S(=O)(=O)O", "λfl": "778^b nm"}
{"compound": "C[Si]1(C)c2cc3c(cc2C=c2cc4c(cc21)=[N+](Cc1ccc(S(=O)(=O)O)cc1S(=O)(=O)O)CCC4)CCCN3CCCC(=O)O", "λfl": "693^b nm"}
{"compound": "CC1(C)CC(CS(=O)(=O)O)c2cc3c(cc2=[N+]1Cc1ccc(S(=O)(=O)O)cc1S(=O)(=O)O)Oc1cc(N)c2cc(S(=O)(=O)O)ccc2c1N=3 (stereo not drawn)", "λfl": "678^b nm"}
{"compound": "CC1(C)CC(CS(=O)(=O)O)c2cc3c(cc2N1Cc1ccc(S(=O)(=O)O)cc1S(=O)(=O)O)[Si](C)(C)c1cc2c(cc1=C3c1cc(C(=O)O)ccc1C(=O)O)C(CS(=O)(=O)O)CC(C)(C)[N+]=2Cc1ccc(S(=O)(=O)O)cc1S(=O)(=O)O (stereo not drawn)", "λfl": "698^b nm"}
{"compound": "CC1(C)c2cc3c(cc2C(c2c(Cl)cccc2Cl)=c2cc4c(cc21)=[N+](Cc1ccc(S(=O)(=O)O)cc1S(=O)(=O)O)C(C)(C)CC4CS(=O)(=O)O)CCCN3CCCC(=O)O (stereo not drawn)", "λfl": "677^b nm"}
{"compound": "CC1(C)c2cc3c(cc2C(c2c(F)c(F)c(SCCS(=O)(=O)O)c(F)c2F)=c2cc4c(cc21)=[N+](Cc1ccc(S(=O)(=O)O)cc1S(=O)(=O)O)C(C)(C)C=C4CS(=O)(=O)O)CCCN3CCCC(=O)O", "λfl": "705^b nm"}
{"compound": "CN(C)c1ccc2c(c1)C(C)(C)c1cc3c(cc1=C2c1c(F)c(F)c(SCC(=O)O)c(F)c1F)CCC[N+]=3Cc1ccc(S(=O)(=O)O)cc1S(=O)(=O)O", "λfl": "667^b nm"}
{"compound": "CN(Cc1ccc(S(=O)(=O)O)cc1S(=O)(=O)O)c1ccc2c(c1)[Si](C)(C)C1=C/C(=[N+](/C)Cc3ccc(S(=O)(=O)O)cc3S(=O)(=O)O)C=CC1=C2c1c(F)c(F)c(SCC(=O)O)c(F)c1F", "λfl": "709^b nm"}
{"compound": "CN(Cc1ccc(S(=O)(=O)O)cc1S(=O)(=O)O)c1ccc2c(c1)C(C)(C)C1=C/C(=[N+](/C)Cc3ccc(S(=O)(=O)O)cc3S(=O)(=O)O)C=CC1=C2c1c(F)c(F)c(F)c(F)c1F", "λfl": "666^b nm"}
{"compound": "Cc1cc(=O)n(CC(=O)O)c2cc(Nc3nc(Cl)nc(NCCS(=O)(=O)O)n3)ccc12", "λfl": "385^b nm"}
{"compound": "CN(Cc1ccc(S(=O)(=O)O)cc1S(=O)(=O)O)c1ccc2c(c1)[Si](C)(C)C1=C/C(=[N+](/C)Cc3ccc(S(=O)(=O)O)cc3S(=O)(=O)O)C=CC1=C2c1cc(C(=O)O)ccc1C(=O)O", "λfl": "670^b nm"}

* * *

assay.info: Fluorescence maximum of the dye
Assay type: physicochemical
condition: solvent PBS pH 7.4
Marks after values point to notes of the source that are not given here.

{"compound": "CN(C)c1ccc2c(c1)C(C)(C)c1cc3c(cc1=C2)CCC[N+]=3Cc1ccc(S(=O)(=O)O)cc1S(=O)(=O)O", "λfl": "622^b nm"}
{"compound": "CCN(CS(=O)(=O)O)c1ccc2c(c1)[Si](C)(C)C1=C/C(=[N+](/CC)CS(=O)(=O)O)C=CC1=C2NCC(S(=O)(=O)O)S(=O)(=O)O", "λfl": "605^b nm"}
{"compound": "Cc1cc(=O)n(CC(=O)O)c2cc(NCc3ccc(S(=O)(=O)O)cc3S(=O)(=O)O)c(S(=O)(=O)O)cc12", "λfl": "418^b nm"}
{"compound": "CN(CCCC(=O)O)C(=O)c1ccccc1C1=c2cc3c(cc2C(C)(C)c2cc4c(cc21)C(CS(=O)(=O)O)CC(C)(C)N4Cc1ccc(S(=O)(=O)O)cc1S(=O)(=O)O)=[N+](Cc1ccc(S(=O)(=O)O)cc1S(=O)(=O)O)C(C)(C)CC3CS(=O)(=O)O (stereo not shown)", "λfl": "666^b nm"}
{"compound": "CC1(C)c2cc3c(cc2C(NCC(S(=O)(=O)O)S(=O)(=O)O)=c2cc4c(cc21)=[N+](Cc1ccc(S(=O)(=O)O)cc1S(=O)(=O)O)C(C)(C)C=C4CS(=O)(=O)O)CCCN3CCCC(=O)O", "λfl": "644^b nm"}
{"compound": "CN(CCCC(=O)O)C(=O)c1ccccc1C1=c2cc3c(cc2[Si](C)(C)c2cc4c(cc21)C(CS(=O)(=O)O)CC(C)(C)N4Cc1ccc(S(=O)(=O)O)cc1S(=O)(=O)O)=[N+](Cc1ccc(S(=O)(=O)O)cc1S(=O)(=O)O)C(C)(C)CC3CS(=O)(=O)O (stereo not shown)", "λfl": "708^b nm"}
{"compound": "CC1(C)c2cc3c(cc2C(c2c(F)c(F)c(SCCS(=O)(=O)O)c(F)c2F)=c2cc4c(cc21)=[N+](CCc1ccc(S(=O)(=O)O)cc1)C(C)(C)C=C4CS(=O)(=O)O)C(CS(=O)(=O)O)=CC(C)(C)N3CCCC(=O)O", "λfl": "719^b nm"}
{"compound": "CC1(C)C=C(CS(=O)(=O)O)c2cc3c(cc2N1)C(C)(C)c1cc2c(cc1=C3c1c(F)c(F)c(SCC(=O)O)c(F)c1F)C(CS(=O)(=O)O)=CC(C)(C)[N+]=2Cc1ccc(S(=O)(=O)O)cc1", "λfl": "707^b nm"}
{"compound": "O=C(O)c1ccccc1-c1c2cc/c(=N/CCc3ccc(S(=O)(=O)O)cc3S(=O)(=O)O)cc-2oc2cc(NCCc3ccc(S(=O)(=O)O)cc3S(=O)(=O)O)ccc12", "λfl": "559^b nm"}
{"compound": "CN(CCCC(=O)O)C(=O)c1ccccc1C1=C2C=C/C(=[N+](\\C)Cc3ccc(S(=O)(=O)O)cc3S(=O)(=O)O)C=C2[Si](C)(C)c2cc(N(C)Cc3ccc(S(=O)(=O)O)cc3S(=O)(=O)O)ccc21", "λfl": "680^b nm"}
{"compound": "CC1(C)c2cc3c(cc2C(NCC(S(=O)(=O)O)S(=O)(=O)O)=c2cc4c(cc21)=[N+](Cc1ccc(S(=O)(=O)O)cc1S(=O)(=O)O)C(C)(C)C=C4CS(=O)(=O)O)C(CS(=O)(=O)O)=CC(C)(C)N3CCCC(=O)O", "λfl": "660^b nm"}
{"compound": "Cc1c(CC(=O)O)c(=O)oc2cc(NCS(=O)(=O)O)ccc12", "λfl": "353^b nm"}
{"compound": "O=C(O)c1ccccc1-c1c2cc/c(=N/CCc3ccc(S(=O)(=O)O)cc3)cc-2oc2cc(NCCc3ccc(S(=O)(=O)O)cc3)ccc12", "λfl": "551^b nm"}
{"compound": "Cn1cc[n+](CCCCS(=O)(=O)O)c1C1=c2cc3c(cc2C(C)(C)c2cc4c(cc21)C(CS(=O)(=O)O)=CC(C)(C)N4CCS(=O)(=O)O)=[N+](CCCC(=O)O)C(C)(C)C=C3CS(=O)(=O)O", "λfl": "771^b nm"}
{"compound": "CN(CCCC(=O)O)C(=O)c1ccccc1-c1c2cc(S(=O)(=O)O)/c(=N/CCc3ccc(S(=O)(=O)O)cc3)cc-2oc2cc(N)c(S(=O)(=O)O)cc12", "λfl": "550^b nm"}
{"compound": "CN(CCCC(=O)O)C(=O)c1ccccc1-c1c2ccc(=[N+](Cc3ccc(S(=O)(=O)O)cc3S(=O)(=O)O)Cc3ccc(S(=O)(=O)O)cc3S(=O)(=O)O)cc-2oc2cc(N(Cc3ccc(S(=O)(=O)O)cc3S(=O)(=O)O)Cc3ccc(S(=O)(=O)O)cc3S(=O)(=O)O)ccc12", "λfl": "572^b nm"}
{"compound": "Cc1cc(=O)n(CC(=O)O)c2cc(Nc3nc(NCCS(=O)(=O)O)nc(NCCS(=O)(=O)O)n3)ccc12", "λfl": "383^b nm"}
{"compound": "CN(Cc1ccc(S(=O)(=O)O)cc1S(=O)(=O)O)c1ccc2c(c1)C(C)(C)C1=C/C(=[N+](/C)Cc3ccc(S(=O)(=O)O)cc3S(=O)(=O)O)C=CC1=C2c1c(F)c(F)c(SCC(=O)O)c(F)c1F", "λfl": "666^b nm"}
{"compound": "CN(CCCC(=O)O)C(=O)c1ccccc1-c1c2cc(S(=O)(=O)O)/c(=N/CCc3ccc(S(=O)(=O)O)cc3)cc-2oc2cc(NCCc3ccc(S(=O)(=O)O)cc3)c(S(=O)(=O)O)cc12", "λfl": "560^b nm"}
